# growth listing for each entry below
# Tested on: COLO 205 colon
# experimentDescription: NCI-60 one-dose screen, 48 h (100 = growth as untreated, 0 = no growth, -100 = all killed)
# particulars: 10 µM unless noted
The panel holds about 83,000 compounds, 20% with a hit somewhere; the sample as a whole holds those more often.
The reply should contain only the number, in %.

The following compounds have reported results that may help.
{"columns": ["compound", "growth, %"],
 "data": [
  ["O=C(Nc1cccc2[nH]c(C(F)(F)F)nc12)c1cc(Cl)ccc1Cl", 24.6],
  ["CN(C)CCN1C(=O)c2cccc3c(-c4ccc(-c5nc6c7ccccc7c7ccccc7c6[nH]5)cc4)ccc(c23)C1=O", 105],
  ["COc1cccc(-c2cnco2)c1OCc1c(C)c(COc2c(OC)cccc2-c2cnco2)c(C)c(COc2c(OC)cccc2-c2cnco2)c1C", 83.4]
]}

Retrieve growth measured for CCC(O)(C(c1ccccc1)c1ccccn1)C(c1ccccc1)c1ccccn1 (centres undefined) and print it.
105

Retrieve growth measured for "CN(C)c1ccc(-c2cc(-c3ccc(Nc4nc(Nc5ccccc5)nc(Nc5ccc(Cl)cc5)n4)cc3)nc(N)n2)cc1" and print it.
58.1

Retrieve growth measured for "O=C(O)c1ccc(CO)o1" and print it.
115

Retrieve growth measured for "O=C(Nc1ccc(N2CCCCC2)c(Cl)c1)c1ccc(Br)o1" and print it.
103

Retrieve growth measured for "Cc1nc(-c2ccccc2)cc2c(O)c(C(=O)N/N=C/c3ccc(N(C)C)cc3)[nH]c(=O)c12" and print it.
109

Retrieve growth measured for "Cn1ccnc1C(=O)/C=C/c1ccc(C(=O)Nc2ccc(S(F)(F)(F)(F)F)cc2)cc1" and print it.
9.14
